This section presents compounds with their documented Thermal decomposition temperature values.
Assay Method Text: Evaluation of thermal decomposition temperature (TG-DTA)
Assay type: physicochemical
Test Settings: heating rate 5° C./min to 800° C., extrapolated temperature of TG curve peak
Answer with a number only, understood to be in °C.

Entry Smiles	Units Text	Thermal decomposition temperature
CCN(CC)c1ccc(C(=C2C=CC(=[N+](CC)CC)C=C2)c2ccc(NCc3ccc(CNc4ccc(C(=C5C=CC(=[N+](CC)CC)C=C5)c5ccc(N(CC)CC)cc5)c5ccccc45)cc3)c3ccccc23)cc1	°C	255
CCNc1ccc(C(=C2C=CC(=[N+](CC)CC)C=C2)c2ccc(N(CC)CC)cc2)c2ccccc12.[Cl-]	°C	218
CCNc1ccc(C(=C2C=CC(=[N+](CC)CC)C=C2)c2ccc(N(CC)CC)cc2)c2ccccc12	°C	236
CCN(CC)c1ccc(C(=C2C=CC(=[N+](CC)CC)C=C2)c2ccc(NCc3ccc(CNc4ccc(C(=C5C=CC(=[N+](CC)CC)C=C5)c5ccc(N(CC)CC)cc5)c5ccccc45)cc3)c3ccccc23)cc1.[Cl-].[Cl-]	°C	247

Turning to the following compound.
Q: Can you look up the measured Thermal decomposition temperature of CCNc1ccc(C(=C2C=CC(=[N+](CC)CC)C=C2)c2ccc(N(CC)CC)cc2)c2ccccc12.Cc1ccc(S(=O)(=O)[O-])cc1 for me?
A: 245

---

Assay Method Text: Evaluation of weight reduction rate (TG-DTA, held at 230° C.)
Type: physicochemical
Test Settings: heated to 230° C. at 20° C./min, kept 60 minutes
This section presents compounds with their documented Weight reduction rate (230° C. for 1 hr) values.
Answer with a number only, understood to be in %.

Below, 4 compounds whose answers are already recorded.
Compound	Weight reduction rate (230° C. for 1 hr), %
CCNc1ccc(C(=C2C=CC(=[N+](CC)CC)C=C2)c2ccc(N(CC)CC)cc2)c2ccccc12.[Cl-] [Color material D, Basic Blue 7 (CI-42595)]	−40.2
CCNc1ccc(C(=C2C=CC(=[N+](CC)CC)C=C2)c2ccc(N(CC)CC)cc2)c2ccccc12 [Color material F]	−33.8
CCN(CC)c1ccc(C(=C2C=CC(=[N+](CC)CC)C=C2)c2ccc(NCc3ccc(CNc4ccc(C(=C5C=CC(=[N+](CC)CC)C=C5)c5ccc(N(CC)CC)cc5)c5ccccc45)cc3)c3ccccc23)cc1 [Color material B]	−29.1
CCNc1ccc(C(=C2C=CC(=[N+](CC)CC)C=C2)c2ccc(N(CC)CC)cc2)c2ccccc12.Cc1ccc(S(=O)(=O)[O-])cc1 [Color material E]	−38.3

Turning to the following compound.
Q: Can you look up the measured Weight reduction rate (230° C. for 1 hr) of CCN(CC)c1ccc(C(=C2C=CC(=[N+](CC)CC)C=C2)c2ccc(NCc3ccc(CNc4ccc(C(=C5C=CC(=[N+](CC)CC)C=C5)c5ccc(N(CC)CC)cc5)c5ccccc45)cc3)c3ccccc23)cc1.[Cl-].[Cl-] [Color material A] for me?
A: −28.9
